- Tested on: HCT116
- Experiment summary: MTT primary screening of anticancer activity, HCT116
- Type: cell-based, Human
- Study conditions: 25 µM pACP, 24 h, maintenance medium 1% FBS, ratio of viability to vehicle (PBS), at least three technical repetitions
Where no end group is shown, it is not given here.
Attribute measured: Survival rate of cancer cells in primary screening

INSERT INTO results (residue_sequence, measured_value) VALUES
  ('RRFAWIGKLQSRKVRNNIRQYRTKIVRQMRRQIFRQMKQKAE [pACP1780]', 0.29),
  ('LARPDAAPKKQLRRPLRFRQPEWRRISKIHHIPRRFRRA [pACP1156]', 1.00),
  ('DSYGNRTEIERKIWRRYPCGYSCGTGEVKCDKEEWKKEYW [pACP264]', 1.00),
  ('SCRNGKGISSGDRPGKAKTGISLEIGKCSYRNKGKSAENSSVAVV [pACP1869]', 1.00);

* * *

// reported Survival rate of cancer cells in primary screening for each item listed
- System: EFM192A
- Experiment summary: MTT primary screening of anticancer activity, EFM192A
- Type: cell-based
- Study conditions: 25 µM pACP, 24 h, maintenance medium 1% FBS, ratio of viability to vehicle (PBS), at least three technical repetitions
Where no end group is shown, it is not given here.
Attribute measured: Survival rate of cancer cells in primary screening

INSERT INTO assay_data (residue_sequence, system, measured_value) VALUES
  ('RCPCKGNTHRRYSIMFCNFDCASLLKLLCGFFGKC [pACP1621]', 'EFM192A', 0.79),
  ('AAGVSIEIHISLTLFTQVKCVARSQCAAEGAGLRHIKVAALQSCSRRRAH [pACP2]', 'EFM192A', 1.00),
  ('LLSDFRQYRTKIVRQMRRQIFRQMKQKAE [pACP1210]', 'EFM192A', 1.00),
  ('DSYGNRTEIERKIWRRYPCGYSCGTGEVKCDKEEWKKEYW [pACP264]', 'EFM192A', 1.00),
  ('KFCSSFFKSLQFPKAETLVGFKGKALKISNVLIKKSPIIK [pACP860]', 'EFM192A', 1.00),
  ('GNPAKQEIKVPGALGKGSCVQSGAGVGPRCRVPCGPLSGGMALFCYE [pACP555]', 'EFM192A', 1.00),
  ('VAHGLDLLDGVVAEGVAAKGDDNTIGLAKRLRHCWNPFCKRPTTH [pACP2160]', 'EFM192A', 1.00),
  ('SCRNGKGISSGDRPGKAKTGISLEIGKCSYRNKGKSAENSSVAVV [pACP1869]', 'EFM192A', 1.00),
  ('QESDAKKYGVGGYFQGLLSQ [pACP1529]', 'EFM192A', 1.00),
  ('DRGERVAHGLDLLDGVVAEGVAAKGDDNTIGLAKRLRHCWNPFCKRPTTH [pACP253]', 'EFM192A', 1.00),
  ('KGVRGKICKGKRCKQISNSGCDRQEIQEKQENRYRKEKQNKG [pACP886]', 'EFM192A', 1.00),
  ('YRKCDTAGGLSKLCVAEKDIKIIWKYGGR [pACP2334]', 'EFM192A', 1.00),
  ('SPLKGGGLLPPAGFCPRRVLCRLPTGWKKGKPSGQMPLFRIWRKVMVMK [pACP1985]', 'EFM192A', 0.07),
  ('KSLQMVLSFVIIFADKKKTLATLIVAKKKKGW [pACP1096]', 'EFM192A', 1.00),
  ('IYRKGTCADCAQGGVCTGHCSNKKTCAALKGVDKIAEDLGRGIK [pACP822]', 'EFM192A', 1.00),
  ('RRFAWIGKLQSRKVRNNIRQYRTKIVRQMRRQIFRQMKQKAE [pACP1780]', 'EFM192A', 0.01),
  ('RLIVRMKTLYEKAAQMEIKIVENRFTRHEKKNKINRIKRKREK [pACP1722]', 'EFM192A', 1.00),
  ('SVGKRCKMGKNYKTVPALKGIPLAGGTYNTRNRSGSG [pACP2037]', 'EFM192A', 1.00),
  ('YSYGYVISSCKKAGGGYAIRYVALHYVQGTKEGGGRQ [pACP2344]', 'EFM192A', 1.00);

* * *

- Test system: BT474
- Experiment summary: MTT primary screening of anticancer activity, BT474
- Type: cell-based
- Study conditions: 25 µM pACP, 24 h, maintenance medium 1% FBS, ratio of viability to vehicle (PBS), at least three technical repetitions
Attribute measured: Survival rate of cancer cells in primary screening

INSERT INTO measurements (residue_sequence, system, measured_value) VALUES
  ('ERRVGYSWYGTWGNKVLKKYPEWLRRLTEKK [pACP341]', 'BT474', 0.62),
  ('SVGKRCKMGKNYKTVPALKGIPLAGGTYNTRNRSGSG [pACP2037]', 'BT474', 1.00),
  ('SCRNGKGISSGDRPGKAKTGISLEIGKCSYRNKGKSAENSSVAVV [pACP1869]', 'BT474', 1.00),
  ('YCIFFLDKGFPGILADFLCLAGKRTIKLKALKQLIRQQVY [pACP2286]', 'BT474', 0.72),
  ('NTGGIQKIQPLRKTDPLLAPCVSGRIGCPGRRCS [pACP1412]', 'BT474', 1.00),
  ('KSLQMVLSFVIIFADKKKTLATLIVAKKKKGW [pACP1096]', 'BT474', 1.00),
  ('QESDAKKYGVGGYFQGLLSQ [pACP1529]', 'BT474', 1.00),
  ('CRLCTHGNVSACVLGKNAVFSVSAHNSDCPQPTCDFSSPLEECLESS [pACP177]', 'BT474', 1.00),
  ('NQRKRTACDRRRSICDERIAAGICKRNFRCKKYLKINGTIGLSIRLGKLG [pACP1381]', 'BT474', 1.00),
  ('GVPMGSVIKKRRKRMAKKKHRKLLRKTRHQRRNKK [pACP593]', 'BT474', 0.78);

* * *

Survival rate of cancer cells in primary screening reference
- Test system: BT474
- Experiment summary: MTT primary screening of anticancer activity, BT474
- Assay type: cell-based
- Study conditions: 25 µM pACP, 24 h, maintenance medium 1% FBS, ratio of viability to vehicle (PBS), at least three technical repetitions
Attribute measured: Survival rate of cancer cells in primary screening

INSERT INTO assay_data (residue_sequence, measured_value) VALUES
  ('DRGERVAHGLDLLDGVVAEGVAAKGDDNTIGLAKRLRHCWNPFCKRPTTH [pACP253]', 1.00),
  ('RVYKFVDMIGEIGHGRENHIGSGFDERLCRNGACVDCYGKYLCCRTGDYP [pACP1836]', 1.00),
  ('SPLKGGGLLPPAGFCPRRVLCRLPTGWKKGKPSGQMPLFRIWRKVMVMK [pACP1985]', 0.05),
  ('AAGVSIEIHISLTLFTQVKCVARSQCAAEGAGLRHIKVAALQSCSRRRAH [pACP2]', 1.00),
  ('GWKKSQCCRNGFYRERGQQQAKNFMSQESFPVRENGE [pACP602]', 1.00),
  ('NLTPPSRRATSPIFCVAKHRGGVCECPTIPQGIGEGVKGHSPFEVEG [pACP1349]', 1.00),
  ('NSFCRQTALCSVALGQYRTKIVRQMRRQIFRQMKQKAE [pACP1403]', 1.00),
  ('VAHGLDLLDGVVAEGVAAKGDDNTIGLAKRLRHCWNPFCKRPTTH [pACP2160]', 1.00),
  ('PVCRKEKKDGKRCVARYVEHFAGKDRRMQA [pACP1505]', 1.00);

* * *

Form field: Survival rate of cancer cells in primary screening (one value per entry).
- System: B16
- Experiment summary: MTT primary screening of anticancer activity, B16
- Type: cell-based, Mouse
- Study conditions: 25 µM pACP, 24 h, maintenance medium 1% FBS, ratio of viability to vehicle (PBS), at least three technical repetitions
- Experimental: We successfully chemically synthesized 40 pACPs for the purpose of in vitro or in vivo characterization of their potential anticancer efficacy. In the initial step, we conducted an in vitro primary screen of these 40 pACPs using a panel of 16 different cancer cell lines, including four human CRC lines (HT29, Caco2, HCT116, and […]), as well as 12 other cancer models (Table S4, Supporting Information). […] After exposure to pACPs, the survival rate of the cancer cells was measured using the MTT assay. […]
Where no end group is shown, it is not given here.
Attribute measured: Survival rate of cancer cells in primary screening

INSERT INTO measurements (residue_sequence, measured_value) VALUES
  ('RRFAWIGKLQSRKVRNNIRQYRTKIVRQMRRQIFRQMKQKAE [pACP1780]', 0.41),
  ('KSLQMVLSFVIIFADKKKTLATLIVAKKKKGW [pACP1096]', 1.00),
  ('WWRRAERSVRRFFGTPIGPFPEIFGRRKAHKKKIIAKFDSVNG [pACP2283]', 0.28),
  ('IPNKKAGSRCLSKKCLLPAKRAFEIHFLTQLTGDIKGI [pACP766]', 1.00),
  ('RLIVRMKTLYEKAAQMEIKIVENRFTRHEKKNKINRIKRKREK [pACP1722]', 0.56),
  ('AAGVSIEIHISLTLFTQVKCVARSQCAAEGAGLRHIKVAALQSCSRRRAH [pACP2]', 1.00),
  ('NSFCRQTALCSVALGQYRTKIVRQMRRQIFRQMKQKAE [pACP1403]', 1.00),
  ('RPITNVGGFLEVNGKGVKPLHGNKFKCTVSGSFLASGWFTLELERVL [pACP1757]', 0.79),
  ('NLTPPSRRATSPIFCVAKHRGGVCECPTIPQGIGEGVKGHSPFEVEG [pACP1349]', 0.66),
  ('SVGKRCKMGKNYKTVPALKGIPLAGGTYNTRNRSGSG [pACP2037]', 0.78),
  ('DSYGNRTEIERKIWRRYPCGYSCGTGEVKCDKEEWKKEYW [pACP264]', 0.73),
  ('GLTSESVKSRCVKCLLYIKKSGATHDDNALHRTYCRNNCYRL [pACP550]', 0.78),
  ('HPGCRKAPGCLCTGVIPSAAIPGTGFEIGGAGCFPLALNCNCATLGKV [pACP631]', 0.76),
  ('RCPCKGNTHRRYSIMFCNFDCASLLKLLCGFFGKC [pACP1621]', 0.79),
  ('YRKCDTAGGLSKLCVAEKDIKIIWKYGGR [pACP2334]', 0.76),
  ('GNPAKQEIKVPGALGKGSCVQSGAGVGPRCRVPCGPLSGGMALFCYE [pACP555]', 0.75),
  ('RVYKFVDMIGEIGHGRENHIGSGFDERLCRNGACVDCYGKYLCCRTGDYP [pACP1836]', 1.00),
  ('NQRKRTACDRRRSICDERIAAGICKRNFRCKKYLKINGTIGLSIRLGKLG [pACP1381]', 0.76),
  ('IYRKGTCADCAQGGVCTGHCSNKKTCAALKGVDKIAEDLGRGIK [pACP822]', 0.69),
  ('KFCSSFFKSLQFPKAETLVGFKGKALKISNVLIKKSPIIK [pACP860]', 0.77),
  ('LARPDAAPKKQLRRPLRFRQPEWRRISKIHHIPRRFRRA [pACP1156]', 0.78),
  ('GVPMGSVIKKRRKRMAKKKHRKLLRKTRHQRRNKK [pACP593]', 1.00),
  ('GWKKSQCCRNGFYRERGQQQAKNFMSQESFPVRENGE [pACP602]', 0.80),
  ('CRLCTHGNVSACVLGKNAVFSVSAHNSDCPQPTCDFSSPLEECLESS [pACP177]', 0.73),
  ('DRGERVAHGLDLLDGVVAEGVAAKGDDNTIGLAKRLRHCWNPFCKRPTTH [pACP253]', 1.00),
  ('SCRNGKGISSGDRPGKAKTGISLEIGKCSYRNKGKSAENSSVAVV [pACP1869]', 0.79),
  ('RLRPVILCKKRRLAAGRKKVGRQKKRKASAEGKEGRSPKKKKDGCW [pACP1739]', 1.00),
  ('NTGGIQKIQPLRKTDPLLAPCVSGRIGCPGRRCS [pACP1412]', 0.80),
  ('YCIFFLDKGFPGILADFLCLAGKRTIKLKALKQLIRQQVY [pACP2286]', 0.77),
  ('NFWLSTLTGHGFCAVVSAARAGS [pACP1292]', 1.00),
  ('YSYGYVISSCKKAGGGYAIRYVALHYVQGTKEGGGRQ [pACP2344]', 0.76),
  ('VAHGLDLLDGVVAEGVAAKGDDNTIGLAKRLRHCWNPFCKRPTTH [pACP2160]', 0.80),
  ('KGVRGKICKGKRCKQISNSGCDRQEIQEKQENRYRKEKQNKG [pACP886]', 0.78),
  ('PVCRKEKKDGKRCVARYVEHFAGKDRRMQA [pACP1505]', 0.78),
  ('ERRVGYSWYGTWGNKVLKKYPEWLRRLTEKK [pACP341]', 0.74),
  ('PPSTRIISKVYPFKKHARGGWAIPGMMCSQMVER [pACP1472]', 1.00),
  ('SPLKGGGLLPPAGFCPRRVLCRLPTGWKKGKPSGQMPLFRIWRKVMVMK [pACP1985]', 0.79),
  ('LLSDFRQYRTKIVRQMRRQIFRQMKQKAE [pACP1210]', 0.76),
  ('QESDAKKYGVGGYFQGLLSQ [pACP1529]', 1.00);
